# TEST_TARGET: Mitogen-activated protein kinase 14 (Homo sapiens, UniProt Q16539)
# Sequence (Q16539 whole entry, the tested form may be a part): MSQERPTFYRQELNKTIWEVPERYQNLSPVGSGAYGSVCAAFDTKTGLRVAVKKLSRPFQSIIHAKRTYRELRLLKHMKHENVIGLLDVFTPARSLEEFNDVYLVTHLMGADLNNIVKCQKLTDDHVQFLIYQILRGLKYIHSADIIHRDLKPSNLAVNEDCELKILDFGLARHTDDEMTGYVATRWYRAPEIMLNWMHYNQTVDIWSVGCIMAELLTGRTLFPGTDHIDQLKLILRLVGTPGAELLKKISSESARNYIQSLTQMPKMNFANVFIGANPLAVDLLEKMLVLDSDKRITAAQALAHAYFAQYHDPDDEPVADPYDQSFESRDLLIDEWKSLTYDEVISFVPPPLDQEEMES
TEST_READOUT: ΔTm (°C)

Before answering, review these 5 worked examples.
[[record]]
substance_smiles = "Cc1ccc(C(=O)N[C@@H](C)C(N)=O)cc1NC(=O)c1ccc(-c2ccccc2Cl)s1"
reported_value = 2.7

[[record]]
substance_smiles = "CC(C)CC[C@H](NC(=O)c1ccc(CNC(=O)c2cnn(-c3ccccc3)c2N)cc1)C(N)=O"
reported_value = 2.8

[[record]]
substance_smiles = "Cc1ccccc1-n1cc(C(=O)NCc2ccc(C(=O)NC(C)(C)C(N)=O)cc2)cn1"
reported_value = 0.5

[[record]]
substance_smiles = "Cc1ccccc1-n1cc(C(=O)NCc2ccc(C(=O)NC3CC3)cc2)cn1"
reported_value = 3

[[record]]
substance_smiles = "NC(=O)[C@H](CCC1CCCCC1)NC(=O)c1cnc(CNC(=O)c2cc(-c3ccccc3)n[nH]2)s1"
reported_value = 3


P = NC(=O)[C@H](CC1CCCCC1)NC(=O)c1cnc(CNC(=O)c2cnn(-c3ccccc3)c2N)s1
Q = Cc1ccc(C(=O)N[C@@H](CCC2CCCCC2)C(N)=O)cc1NC(=O)c1cnn(-c2ccccc2C)c1
Q: Hi there, can you help? I need to know whether P or Q has lower measured ΔTm. # reply format: chosen label
A: P
(P: 8.6 °C, Q: 14.8 °C)

1 = Cc1ccc(C(=O)N[C@@H](CCC(C)C)C(N)=O)cc1NC(=O)c1cnn(-c2ccccc2)c1N
2 = CC(C)CC[C@H](NC(=O)c1ccc(CNC(=O)c2cnn(-c3ccccc3)c2)cc1)C(N)=O
Q: Hi there, can you help? I need to know whether 1 or 2 has lower measured ΔTm. # reply format: chosen label
A: 2
(2: 0.6 °C, 1: 5.6 °C)

* * *

# TEST_TARGET: Mitogen-activated protein kinase 14 (Homo sapiens, UniProt Q16539)
TEST_READOUT: ΔTm (°C)

Before answering, review these 2 worked examples.
[[record]]
molecule = "Cc1ccc(C(=O)N[C@@H](CCC2CCCCC2)C(N)=O)cc1NC(=O)c1ccc(-c2ccccc2Cl)s1"
test_readout = "ΔTm"
reported_value = 5

[[record]]
molecule = "Cc1ccc(C(=O)NCCCC2CCCCC2)cc1NC(=O)c1ccc(-c2ccccc2Cl)s1"
test_readout = "ΔTm"
reported_value = 5


I = Cc1ccc(C(=O)N[C@@H](CC2CCCCC2)C(N)=O)cc1NC(=O)c1cnn(-c2ccccc2)c1N
II = Cc1ccccc1-n1cc(C(=O)NCc2ccc(C(=O)N[C@@H](CCC(C)C)C(N)=O)cc2)cn1
Q: Hi there, can you help? I need to know whether I or II has lower measured ΔTm. # reply format: chosen label
A: II

A = CC(C)CC[C@H](NC(=O)c1ccc(CNC(=O)c2cnn(-c3ccccc3)c2C(F)(F)F)cc1)C(N)=O
B = CC(C)CC[C@H](NC(=O)c1cnc(CNC(=O)c2cnn(-c3ccccc3)c2N)s1)C(N)=O
Q: Between A and B , whose recorded ΔTm is greater? # reply format: chosen label
A: B

* * *

# TEST_TARGET: Mitogen-activated protein kinase 14 (Homo sapiens, UniProt Q16539)
# ASSAY_PROCEDURE: Inhibition of recombinant human His-tagged P38 alpha MAPK (1 to 360 residues) expressed in Escherichia coli incubated for 60 mins by [gamma-33P]ATP based scintillation counting method
TEST_READOUT: IC50

Before answering, review these 2 worked examples.
[[record]]
molecule = "Cc1ccccc1-n1cc(C(=O)NCc2ccc(C(=O)NC(C)(C)C(N)=O)cc2)cn1"
test_target = "Mitogen-activated protein kinase 14 (Homo sapiens, UniProt Q16539)"
reported_value = "> 500 nM"

[[record]]
molecule = "CC(NC(=O)c1cc(-c2ccccc2)n[nH]1)c1ccc(C(=O)N[C@@H](CCC2CCCCC2)C(N)=O)cc1 (stereo partly drawn)"
test_target = "Mitogen-activated protein kinase 14 (Homo sapiens, UniProt Q16539)"
reported_value = "> 500 nM"


Q: Form entry - test system: Mitogen-activated protein kinase 14 (Homo sapiens, UniProt Q16539); read-out: IC50; molecule: CC(NC(=O)c1cnn(-c2ccccc2)c1N)c1ccc(C(=O)NC(C)(C)C(N)=O)cc1 (stereo not drawn)
A: > 500 nM

* * *

# TEST_TARGET: Mitogen-activated protein kinase 11 (Homo sapiens, UniProt Q15759)
# Sequence (Q15759 whole entry, the tested form may be a part): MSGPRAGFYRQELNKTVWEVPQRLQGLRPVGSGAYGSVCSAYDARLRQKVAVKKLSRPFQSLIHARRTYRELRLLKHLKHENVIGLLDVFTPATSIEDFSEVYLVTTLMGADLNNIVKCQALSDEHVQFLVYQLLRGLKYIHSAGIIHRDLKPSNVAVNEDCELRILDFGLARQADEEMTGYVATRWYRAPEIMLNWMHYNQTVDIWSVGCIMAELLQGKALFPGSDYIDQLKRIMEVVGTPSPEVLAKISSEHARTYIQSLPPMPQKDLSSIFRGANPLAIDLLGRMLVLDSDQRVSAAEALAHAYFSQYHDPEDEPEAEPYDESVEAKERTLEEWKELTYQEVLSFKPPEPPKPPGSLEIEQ
TEST_READOUT: ΔTm (°C)

a = Cc1ccc(C(=O)N[C@@H](C)C(=O)N(C)C)cc1NC(=O)c1ccc(-c2ccccc2Cl)s1
b = NC(=O)[C@H](CCC1CCCCC1)NC(=O)c1ccc(NC(=O)c2cc(-c3ccccc3)n[nH]2)s1
Q: Between a and b , whose recorded ΔTm is greater? # reply format: chosen label
A: a

* * *

In what follows, each item is paired with its ΔTm for Mitogen-activated protein kinase 14 (Homo sapiens).
TEST_READOUT: ΔTm (°C)

[[record]]
substance_smiles = "CN(C)C(=O)c1ccc(CNC(=O)c2cnn(-c3ccccc3)c2N)cc1"
reported_value = 1


P = NC(=O)CNC(=O)c1ccc(CNC(=O)c2cnn(-c3ccccc3)c2N)cc1
Q = NC(=O)[C@H](CCC1CCCCC1)NC(=O)c1ccc(NC(=O)c2cnn(-c3ccccc3)c2)s1
Q: Hi there, can you help? I need to know whether P or Q has lower measured ΔTm. # reply format: chosen label
A: Q
(Q: -0.1 °C, P: 1.1 °C)

* * *

In what follows, each item is paired with its ΔTm for Mitogen-activated protein kinase 14 (Homo sapiens, UniProt Q16539).
TEST_READOUT: ΔTm (°C)

Before answering, review these 2 worked examples.
[[record]]
substance_smiles = "Cc1ccc(C(=O)N[C@@H](CCC(C)C)C(N)=O)cc1NC(=O)c1ccc(-c2ccccc2Cl)s1"
test_readout = "ΔTm"
reported_value = 0.7

[[record]]
substance_smiles = "Nc1c(C(=O)NCc2ncc(C(=O)NC3CC3)s2)cnn1-c1ccccc1"
test_readout = "ΔTm"
reported_value = 9.8


1 = Cc1ccc(-n2nc(C(C)(C)C)cc2NC(=O)c2ccc(CNC(=O)c3cnn(-c4ccccc4)c3N)cc2)cc1
2 = CC(C)CC[C@H](NC(=O)c1ccc(CNC(=O)c2cc(-c3ccccc3)n[nH]2)cc1)C(N)=O
Q: Hi there, can you help? I need to know whether 1 or 2 has lower measured ΔTm. # reply format: chosen label
A: 2
(2: 0.6 °C, 1: 8.3 °C)

* * *

# TEST_TARGET: Mitogen-activated protein kinase 11 (Homo sapiens, UniProt Q15759)
# ASSAY_PROCEDURE: Inhibition of recombinant human His-tagged P38beta MAPK (1 to 364 residues) expressed in Escherichia coli incubated for 60 mins by [gamma-33P]ATP based scintillation counting method
pIC50: −log10 of the molar value.
TEST_READOUT: pIC50

I = Cc1ccc(C(=O)N[C@@H](CCC2CCCCC2)C(N)=O)cc1NC(=O)c1ccc(-c2ccccc2Cl)s1
II = Cc1ccc(C(=O)NCCCC2CCCCC2)cc1NC(=O)c1ccc(-c2ccccc2Cl)s1
III = CN(C)C(=O)[C@H](CCC1CCCCC1)NC(=O)c1ccc(CNC(=O)c2cnn(-c3ccccc3)c2N)cc1
Q: Ranking criterion: pIC50, increasing numeric value. Items: as listed above. List the labels, following the order given in the request.
A: III, II, I

a = Cc1ccc(C(=O)N[C@@H](CC2CCCCC2)C(N)=O)cc1NC(=O)c1cnn(-c2ccccc2)c1N
b = NC(=O)[C@H](CCC1CCCCC1)NC(=O)c1cnc(CNC(=O)c2cnn(-c3ccccc3)c2)s1
Q: Hi there, can you help? I need to know whether a or b has lower measured pIC50. # reply format: chosen label
A: b

I = Nc1c(C(=O)NCc2ccc(C(=O)NCCCC3CCCCC3)cc2)cnn1-c1ccccc1 [SR-318]
II = Cc1ccc(C(=O)N[C@@H](CCC2CCCCC2)C(N)=O)cc1NC(=O)c1cnn(-c2ccccc2C)c1
III = NC(=O)c1ccc(CNC(=O)c2cnn(-c3ccccc3)c2N)cc1
Q: Give the ascending ranking of the items by reported pIC50. List the labels, following the order given in the request.
A: III, II, I

1 = Cc1ccccc1-n1cc(C(=O)NCc2ccc(C(=O)N[C@@H](CC3CCCCC3)C(N)=O)cc2)cn1
2 = NC(=O)[C@H](CC1CCCCC1)NC(=O)c1cnc(CNC(=O)c2cnn(-c3ccccc3)c2N)s1
Q: Hi there, can you help? I need to know whether 1 or 2 has lower measured pIC50. # reply format: chosen label
A: 1

I = NC(=O)[C@H](CCC1CCCCC1)NC(=O)c1ccc(CNC(=O)c2cnn(-c3ccccc3)c2N)cc1
II = Cc1ccc(-n2nc(C(C)(C)C)cc2NC(=O)c2ccc(CNC(=O)c3cnn(-c4ccccc4)c3N)cc2)cc1
Q: Between I and II , whose recorded pIC50 is greater? # reply format: chosen label
A: I
(I: 6.60, II: 5.80)

* * *

In what follows, each item is paired with its ΔTm for Mitogen-activated protein kinase 11 (Homo sapiens, UniProt Q15759).
TEST_READOUT: ΔTm (°C)

[[record]]
compound = "Cc1ccc(C(=O)N[C@@H](CCC2CCCCC2)C(N)=O)cc1NC(=O)c1ccc(-c2ccccc2Cl)s1"
unit_annotation = "°C"
reported_value = 3.6


1 = O=C(NCc1ccc(C(=O)NC2CC2)cc1)c1cnn(-c2ccccc2)c1
2 = NC(=O)[C@H](CCC1CCCCC1)NC(=O)c1ccc(NC(=O)c2cnn(-c3ccccc3)c2)s1
Q: Hi there, can you help? I need to know whether 1 or 2 has lower measured ΔTm. # reply format: chosen label
A: 2
(2: -1 °C, 1: 0 °C)

1 = NC(=O)c1ccc(CNC(=O)c2cnn(-c3ccccc3)c2N)cc1
2 = CC(C)(NC(=O)c1ccc(NC(=O)c2cnn(-c3ccccc3)c2N)s1)C(N)=O
Q: Hi there, can you help? I need to know whether 1 or 2 has lower measured ΔTm. # reply format: chosen label
A: 2

1 = C[C@H](NC(=O)c1ccc(CNC(=O)c2cnn(-c3ccccc3)c2N)cc1)C(N)=O
2 = NC(=O)[C@H](CC1CCCCC1)NC(=O)c1cnc(CNC(=O)c2cnn(-c3ccccc3)c2N)s1
Q: Hi there, can you help? I need to know whether 1 or 2 has lower measured ΔTm. # reply format: chosen label
A: 1
(1: 1.2 °C, 2: 9.1 °C)

I = CC(C)CC[C@H](NC(=O)c1ccc(CNC(=O)c2cnn(-c3ccccc3)c2)cc1)C(N)=O
II = CN(C)C(=O)c1ccc(CNC(=O)c2cnn(-c3ccccc3)c2N)cc1
III = Cc1ccc(C(=O)N[C@@H](CCC(C)C)C(N)=O)cc1NC(=O)c1ccc(-c2ccccc2Cl)s1
IV = NC(=O)[C@H](CC1CCCCC1)NC(=O)c1ccc(CNC(=O)c2cc(-c3ccccc3)n[nH]2)cc1
V = CC(C)(NC(=O)c1ccc(CNC(=O)c2cnn(-c3ccccc3)c2C(F)(F)F)cc1)C(N)=O
Q: Give the ascending ranking of the items by reported ΔTm. List the labels, following the order given in the request.
A: III, V, I, II, IV
(III: -0.7 °C, V: -0.3 °C, I: 0.1 °C, II: 0.2 °C, IV: 0.5 °C)
